These data points were gathered from patent US12590062B2.

# System Tested: PD-1/PD-L1 (Homo sapiens, UniProt Q9NZQ7)
# Sequence (Q9NZQ7 19-238 limits assumed): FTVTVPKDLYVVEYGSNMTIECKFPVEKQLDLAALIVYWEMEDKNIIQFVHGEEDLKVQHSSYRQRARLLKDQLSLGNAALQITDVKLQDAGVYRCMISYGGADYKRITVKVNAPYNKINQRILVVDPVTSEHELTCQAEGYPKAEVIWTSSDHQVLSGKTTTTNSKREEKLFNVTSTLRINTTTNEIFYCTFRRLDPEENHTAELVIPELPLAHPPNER
# Measurement Protocol: PD-1/PD-L1 biochemical protein-protein interaction assay (ALPHA)
# Experimental Context: 0.3 nM His tagged PD-L1, 2.5 nM biotinylated Fc-PD-1, 60 minutes at 25° C., read-out: IC50 PD-L1-PD-1 Alpha IC50-mono PD-L1-fcP-D1
pIC50: −log10 of the molar value.
Everything with pIC50 lower than 9 is Condition not met; everything else, including exactly 9, is Condition met.

INSERT INTO assay_data (compound, label) VALUES
  ('Cc1c(COc2cc(OCc3cncc(C#N)c3)c(CNCc3ccccn3)cc2Br)cccc1-c1cccc(COc2cc(OCc3cncc(C#N)c3)c(CNCc3ccccn3)cc2Br)c1C [Example 275]', 'Condition not met'),
  ('Cc1c(COc2cc(OCc3cncc(C#N)c3)c(CN[C@@](C)(CO)C(=O)O)cc2Cl)cccc1-c1cccc(-c2ccc3c(c2)CC(N)C3)c1C (stereo partly drawn) [Example 343]', 'Condition met'),
  ('Cc1c(COc2cc(OCc3cncc(C#N)c3)c(CN[C@@](C)(CO)C(=O)O)cc2Cl)cccc1-c1cccc(-c2ccc(CNC3CNC(=O)C3)cc2)c1C (stereo partly drawn) [Example 363]', 'Condition met'),
  ('Cc1c(COc2cc(OCc3cncc(C#N)c3)c(CN[C@@H]3CCC[C@@H]3O)cc2Cl)cccc1-c1cccc(-c2ccc3c(c2)CCC3N2CC3(CC(C(=O)O)C3)C2)c1C (stereo partly drawn) [Example 583]', 'Condition met');

Read the next record carefully.
QUERY: Does the compound COc1nc(-c2cccc(-c3cccc(-c4ccc5c(c4)CCC(N)C5)c3Cl)c2Cl)ccc1CN1CC2(CCC(=O)N2)C1 (stereo not drawn) [Example 612] have recorded pIC50 that is 9 or more?
RESULT: Condition not met

====

# System Tested: PD-1/PD-L1 (Homo sapiens, UniProt Q9NZQ7)
# Measurement Protocol: PD-1/PD-L1 biochemical protein-protein interaction assay (ALPHA)
# Experimental Context: 0.3 nM His tagged PD-L1, 2.5 nM biotinylated Fc-PD-1, 60 minutes at 25° C., read-out: IC50 PD-L1-PD-1 Alpha IC50-mono PD-L1-fcP-D1
# note: exactly 0.5 nM is not below, so it is rule not met; use rule met for IC50 strictly under it

INSERT INTO results (compound, system_tested, label) VALUES
  ('Cc1c(COc2cc(OCc3cncc(C#N)c3)c(CNC[C@@H](O)CC(=O)O)cc2Cl)cccc1-c1cccc(-c2ccc3c(c2)CC(=O)N3CCN(C)C)c1C', 'PD-1/PD-L1 (Homo sapiens, UniProt Q9NZQ7)', 'rule not met'),
  ('Cc1c(COc2cc(OCc3cncc(C#N)c3)c(CN[C@@H]3CCC[C@@H]3O)cc2Cl)cccc1-c1cccc(-c2ccc3c(c2)CCC3N2CC[C@H](C(=O)O)C2)c1C (some centres unmarked)', 'PD-1/PD-L1 (Homo sapiens, UniProt Q9NZQ7)', 'rule met'),
  ('COc1nc(O[C@H]2CCc3c(-c4cccc(-c5ccc(C6=N[C@@H](C)CN6)c(OC)n5)c4Cl)cccc32)c(Br)cc1CN[C@@](C)(CO)C(=O)O', 'PD-1/PD-L1 (Homo sapiens, UniProt Q9NZQ7)', 'rule met'),
  ('COc1nc(OCc2cccc(-c3cccc(COc4cc(OCc5cncc(C#N)c5)c(CNC[C@@H](O)CC(=O)O)cc4Cl)c3C)c2C)ccc1CNCCO', 'PD-1/PD-L1 (Homo sapiens, UniProt Q9NZQ7)', 'rule not met'),
  ('COc1nc(O[C@H]2CCc3c(-c4cccc(-c5cnc(CNC[C@@H]6CCC(=O)N6)c(OC)n5)c4Cl)cccc32)c(Cl)cc1CN[C@@](C)(CO)C(=O)O', 'PD-1/PD-L1 (Homo sapiens, UniProt Q9NZQ7)', 'rule met');

QUERY: Here's an entry: Cc1c(COc2nc(OCC(F)(F)F)c(CNC[C@@H](O)CC(=O)O)cc2Br)cccc1-c1cccc(COc2nc(OCC(F)(F)F)c(CNC[C@@H](O)CC(=O)O)cc2Br)c1C . Is its IC50 below 0.5 nM?
RESULT: rule not met

QUERY: Dear reviewer, please state whether COc1nc(O[C@H]2CCc3c(-c4cccc(-c5ccc(CNC[C@@H]6CCC(=O)N6)cc5)c4Cl)cccc32)c(Cl)cc1CN1CCCC[C@H]1C(=O)O has IC50 strictly beneath 0.5 nM.
RESULT: rule met

QUERY: Answer whether the compound COc1nc(-c2cccc(-c3cccc4c3CC[C@@H]4Oc3nc(OC)c(CN4CC5(C(=O)O)CCC4CC5)cc3Cl)c2Cl)ccc1CNC[C@@H]1CCC(=O)N1 has IC50 strictly less than 0.5 nM
RESULT: rule met

QUERY: Please state whether IC50 is below 0.5 nM for COc1nc(-c2cccc(-c3cccc4c3CC[C@@H]4Oc3nc(OC)c(CN4CC5(CCC(=O)N5)C4)cc3Br)c2Cl)ccc1CN1CC2(CCC(=O)N2)C1
RESULT: rule met

QUERY: In plain terms, does COc1cc(OCc2cccc(-c3cccc(COc4cc(OC)c(CNC[C@@H](O)CC(=O)O)cc4C(F)(F)F)c3C)c2C)c(Cl)cc1CNC[C@@H](O)CC(=O)O come in under 0.5 nM for IC50?
RESULT: rule met

QUERY: Say whether its IC50 is strictly beneath 0.5 nM. Entry: COc1cc(-c2cccc(-c3cccc(-c4cc(F)c(CNC[C@@H]5CCC(=O)N5)c(OC)c4)c3Cl)c2Cl)cc(F)c1CNC[C@@H]1CCC(=O)N1
RESULT: rule not met
